Origin of the recorded values: patent US4401604A

# Tested on: Downy Brome
# test_method_notes: Post-emergence herbicidal activity, greenhouse
# Format: in vivo
# protocol_conditions: Table I; 5.6 kg/h; 4 WAT
This listing pairs compounds with measured post-emergence herbicidal activity index.

Past entries and their recorded results:
[
  {
    "smiles_repr": "COC(=O)CN(CP(=O)(Oc1ccccc1OC)Oc1ccccc1OC)SSc1cccc(C(F)(F)F)c1",
    "post-emergence herbicidal activity index": "1 (25-49% control)"
  },
  {
    "smiles_repr": "COC(=O)CN(CP(=O)(Oc1ccccc1)Oc1ccccc1)SSC(C)C",
    "post-emergence herbicidal activity index": "3 (75-99% control)"
  },
  {
    "smiles_repr": "CCOC(=O)CN(CP(=O)(Oc1ccc(OC)cc1)Oc1ccc(OC)cc1)SSC",
    "post-emergence herbicidal activity index": "2 (50-74% control)"
  },
  {
    "smiles_repr": "O=C(CN(CP(=O)(Oc1ccccc1)Oc1ccccc1)SSC1CCCCC1)OCc1ccccc1",
    "post-emergence herbicidal activity index": "1 (25-49% control)"
  },
  {
    "smiles_repr": "CCOC(=O)CN(CP(=O)(Oc1ccc(Cl)c(C)c1)Oc1ccc(Cl)c(C)c1)SSc1ccc(OC)cc1",
    "post-emergence herbicidal activity index": "2 (50-74% control)"
  },
  {
    "smiles_repr": "O=C(CN(CP(=O)(Oc1ccccc1)Oc1ccccc1)SSCCc1ccccc1)OCc1ccccc1",
    "post-emergence herbicidal activity index": "0 (0- 24% control)"
  }
]

Query string: Sample "CCCCCCCCSSN(CC(=O)OC)CP(=O)(Oc1ccccc1)Oc1ccccc1" — what was its post-emergence herbicidal activity index?
Result string: 2 (50-74% control)
